// data source = patent US20050196744A1

assayed.target: WT DAT (Rattus norvegicus, UniProt P23977)
Construct: expressed in transfected cells; host or cells: CHO-K1, stably transfected (G-418 selection); intact monolayers in A1 and A3, membranes in A5
Sequence (P23977 whole entry): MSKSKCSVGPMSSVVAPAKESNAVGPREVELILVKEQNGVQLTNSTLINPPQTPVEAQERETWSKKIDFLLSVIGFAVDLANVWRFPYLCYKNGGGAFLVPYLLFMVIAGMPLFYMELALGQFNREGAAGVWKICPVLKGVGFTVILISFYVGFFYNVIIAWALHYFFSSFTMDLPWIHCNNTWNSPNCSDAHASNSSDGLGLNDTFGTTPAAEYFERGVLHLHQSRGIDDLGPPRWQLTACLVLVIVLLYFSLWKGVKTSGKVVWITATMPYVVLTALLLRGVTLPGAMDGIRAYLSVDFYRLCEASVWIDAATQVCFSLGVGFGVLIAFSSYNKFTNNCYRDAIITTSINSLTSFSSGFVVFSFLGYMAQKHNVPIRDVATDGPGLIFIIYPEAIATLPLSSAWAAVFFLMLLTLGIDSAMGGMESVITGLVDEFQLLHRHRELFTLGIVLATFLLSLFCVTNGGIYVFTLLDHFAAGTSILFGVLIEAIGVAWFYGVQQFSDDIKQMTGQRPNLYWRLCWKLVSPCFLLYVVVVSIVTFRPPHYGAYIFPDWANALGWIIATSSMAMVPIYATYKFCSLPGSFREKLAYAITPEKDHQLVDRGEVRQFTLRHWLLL
measurement.description: [3H]-WIN 35,428 binding / displacement at intact CHO cells stably expressing WT DAT
measured.metric: Ki (nM)
Write the answer as a number in nM, unit excluded.

Query OC1(c2ccc(Cl)cc2)c2ccccc2C2=NCCN21 (stereo not shown) yields Ki of 13

###

assayed.target: WT DAT (Rattus norvegicus)
Construct: expressed in transfected cells; host or cells: CHO-K1, stably transfected (G-418 selection); intact monolayers in A1 and A3, membranes in A5
measurement.description: [3H]-dopamine uptake and uptake inhibition, CHO cells stably expressing WT DAT
Format: cell-based
measured.metric: pKi
In textbook form, pKi equals minus log to base ten of the concentration in mol/L.

For record OC1(c2ccc(Cl)cc2)c2ccccc2C2=NCCN21 (stereo not shown) the listed pKi is 7.51

###

Ki for assorted compounds
assayed.target: D79E DAT (Rattus norvegicus, UniProt P23977, D79E)
Construct: expressed in transfected cells; host or cells: CHO-K1, stably transfected; intact attached monolayers
Sequence (P23977 whole entry D79E): as the sequence (P23977 whole entry) above, with D79E counted along it
measurement.description: [3H]-dopamine uptake and uptake inhibition, CHO cells stably expressing D79E DAT
Assay type: cell-based
applied.conditions: DAT substrates; CHO cells, D79E DAT; 22° C., KRH buffer; mean ± standard error; read-out: Ki, inhibition of [3H]-DA uptake
Respond with the bare value in µM.

Here is how some compounds turned out for Ki.
>>> value_measured("NCCc1cccc(O)c1")
1.2
>>> value_measured("NCCc1ccc(O)cc1")
3.3

Alright, here's another compound for you.
Per the record, NC[C@H](O)c1ccc(O)c(O)c1 [Norepinephrine] has Ki of 5.2

###

Test system: intact naïve CHO cells
measurement.description: [3H]-WIN 35,428 low affinity site of intact naïve CHO cells
Assay type: binding
applied.conditions: intact naïve (untransfected) CHO cells
measured.metric: Kd

Briefly, Kd measured for COC(=O)[C@H]1[C@@H](c2ccc(F)cc2)C[C@@H]2CC[C@H]1N2C [WIN 35,428] : > 1 µM

###

assayed.target: WT DAT (Rattus norvegicus)
Construct: expressed in transfected cells; host or cells: CHO-K1, stably transfected (G-418 selection); intact monolayers in A1 and A3, membranes in A5
measurement.description: [3H]-WIN 35,428 binding / displacement at intact CHO cells stably expressing WT DAT
applied.conditions: DAT substrates; intact CHO cells, WT DAT; 1 nM [3H]-WIN 35,428, 15 min, 22° C.; read-out: Ki, [3H]-WIN inhibition (binding affinity)
measured.metric: pKi
Please express pKi as -log10 of the molar concentration.

>>> value_measured("NC[C@H](O)c1ccc(O)c(O)c1 [Norepinephrine]")
5.64

pKi in this record for NCCc1ccc(O)cc1 [p-Tyramine] : 6.10

The compound identified as NCCc1cccc(O)c1 [m-Tyramine] registered its pKi at 6.00

###

assayed.target: D79E DAT (Rattus norvegicus, UniProt P23977, D79E)
Construct: expressed in transfected cells; host or cells: CHO-K1, stably transfected; intact attached monolayers
measurement.description: [3H]-dopamine uptake and uptake inhibition, CHO cells stably expressing D79E DAT
Format: cell-based
applied.conditions: CHO cells; comparison of Ki values
measured.metric: loss of dopamine uptake inhibition potency caused by the D79E mutation (D79E vs WT DAT)

>>> value_measured("COC(=O)C(c1ccccc1)C1CCCCN1 (stereo not drawn) [Methylphenidate, methylphenidate]")
"no effect"
>>> value_measured("NCCc1ccc(O)cc1 [p-Tyramine]")
"2 fold"
>>> value_measured("COC(=O)[C@H]1[C@@H](c2ccc(F)cc2)C[C@@H]2CC[C@H]1N2C [WIN 35,428]")
"no effect"
>>> value_measured("OC1(c2ccc(Cl)cc2)c2ccccc2C2=NCCN21 (stereo not drawn) [Mazindol, mazindol]")
"no effect"
